compounds and their reported inhibition at 0.1 µM
system: ASPC1 cells; assay: Inhibition of KRas-mediated phosphorylation of ERK (Cisbio HTRF pERK), ASPC1 cells; type: cell-based; conditions: Homo sapiens, ASPC1; single point at 100 nM; AsPC-1 cells; 3 hrs compound incubation
# number only, unit % dropped from output

{"compound": "CCc1c(F)ccc2cc(O)cc(N3CCc4c(nc(OC[C@@]56CCCN5C[C@H](F)C6)nc4N4CCCc5nn(C6CC6)cc5C4)C3)c12 [Example 239]", "readoutUnits": "%", "inhibition at 0.1 µM": 6}
{"compound": "CN(C)C(=O)c1cc2n(n1)CCCN(c1nc(OCC34CCCN3CCC4)nc3c1CCN(c1cc(O)cc(Cl)c1C1CC1)C3)C2 [Example 437]", "readoutUnits": "%", "inhibition at 0.1 µM": 2}

Incoming: Identify inhibition at 0.1 µM associated with the compound CCc1c(F)ccc2cc(O)cc(N3CCc4c(nc(OC[C@@]56CCCN5C[C@H](F)C6)nc4N4CCCCn5nc(C(=O)NC(C)C)c(Cl)c5C4)C3)c12 [Example 506]
Outgoing: 97

Incoming: Identify inhibition at 0.1 µM associated with the compound CCc1c(F)ccc2cc(O)cc(N3CCc4c(nc(OC[C@@]56CCCN5C[C@H](F)C6)nc4N4CCCn5nc(C(=O)N6CC7CCC(C6)N7)cc5C4)C3)c12 [Example 265]
Outgoing: 63

Incoming: Identify inhibition at 0.1 µM associated with the compound CCc1c(F)ccc2cc(O)cc(N3CCc4c(nc(OC[C@@]56CCCN5C[C@H](F)C6)nc4N4CCCn5nc(C(=O)N6CC7CCC(C7)C6)cc5C4)C3)c12 [Example 302]
Outgoing: 91

Incoming: Identify inhibition at 0.1 µM associated with the compound CCc1c(F)ccc2cc(O)cc(N3CCc4c(nc(OC[C@@]56CCCN5C[C@H](F)C6)nc4N4CCCn5nc(C(=O)N6CC7COCC6C7)cc5C4)C3)c12 (stereo partly shown) [Example 306]
Outgoing: 99

Incoming: Identify inhibition at 0.1 µM associated with the compound Oc1cc(Cl)c(C2CC2)c(N2CCc3c(nc(OCC45CCCN4CCC5)nc3N3CCC[C@]4(C3)C[C@H](O)C4)C2)c1 [Example 440]
Outgoing: -10

// provenance: patent US20250368649A1
